Test system: HOP-62
Experiment: NCI tumour cell line growth inhibition, 48 h
Calls of active or inactive are those of the source. No stated cut-off is given here; in the data, active = GI50 up to about 1.1 µM and inactive = higher.
recorded.endpoint: GI50

The examples below pair each entry with its known result.
• CC(Cc1ccccc1)N(C)Cc1nc(C2CCC([N+](=O)[O-])O2)no1 (stereo not drawn) = 7.43 µM (inactive)
• O=C1c2ccccc2C(=O)c2c(Nc3ccc4c5c(cccc35)C(=O)c3ccccc3-4)cccc21 = > 100 µM (inactive)

Below: the item to evaluate.
If you can, please state the reported GI50 value of COc1ccccc1C(C1=C(O)COC1=O)c1cc2c(cc1OC(C)=O)OCO2 (stereo not drawn) . > 100 µM (inactive)
